bioavailability values for the compounds below.
Test: In vivo rat pharmacokinetics (intravenous and oral)
Details: plasma, oral by gavage
measurement label: bioavailability (%)

[
  {
    "cpd smiles": "Cc1nc(C(=O)N2CCN(C(=O)c3cn4nc(-c5ccc(Cl)cc5)cc(C(C)(C)C)c4n3)C(C)(C)C2)n[nH]1",
    "measurement label": "bioavailability",
    "meas value": 77
  },
  {
    "cpd smiles": "CC(C)(C)c1cc(C2CCC(F)(F)CC2)nn2cc(C(=O)N3CCN(C(=O)[C@H]4C[C@@](C)(O)C4)CC3(C)C)nc12",
    "measurement label": "bioavailability",
    "meas value": 67
  },
  {
    "cpd smiles": "CC(C)c1cc(-c2ccc(C(F)(F)F)c(F)c2)nn2cc(C(=O)N3CCN(C(=O)C(C)(C)O)CC3(C)C)nc12",
    "measurement label": "bioavailability",
    "meas value": 92
  }
]

====

Target: PAR2 (HT-29 cells, SLIGKV activation) (Homo sapiens)
Construct: host or cells: HT-29 cells
Sequence (P55085 26-397): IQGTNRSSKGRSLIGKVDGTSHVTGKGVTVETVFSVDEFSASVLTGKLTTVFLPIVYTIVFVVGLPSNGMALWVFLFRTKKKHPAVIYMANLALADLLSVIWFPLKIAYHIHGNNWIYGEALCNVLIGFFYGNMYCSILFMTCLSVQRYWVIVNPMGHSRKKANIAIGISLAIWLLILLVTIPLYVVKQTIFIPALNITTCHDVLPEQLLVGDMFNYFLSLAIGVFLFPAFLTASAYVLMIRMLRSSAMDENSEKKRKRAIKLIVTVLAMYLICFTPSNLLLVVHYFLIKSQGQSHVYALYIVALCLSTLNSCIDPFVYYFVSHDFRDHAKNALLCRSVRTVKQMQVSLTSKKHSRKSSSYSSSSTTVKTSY
Experiment: Ca FLIPR TETRA assay, ANTAGONIST mode, stimulation with 8 μM SLIGKV
Format: cell-based
Details: HT-29 cells, antagonist mode, stimulation with 8 μM SLIGKV
pIC50: −log10 of the molar value.

[
  {
    "compound": "CC(C)c1cc(-c2ccc(Cl)cc2)nn2cc(C(=O)N3CCNC(=O)C3(C)C)nc12 [Compound I-353]",
    "pIC50": 8.62
  },
  {
    "compound": "Cc1cc(-c2cc(C(C)C)c3nc(C(=O)N4CCN(c5c[nH]cn5)C(=O)C4(C)C)cn3n2)ccc1F [Compound I-388]",
    "pIC50": 7.90
  },
  {
    "compound": "CC(C)c1cc(-c2ccc(F)cc2)nn2cc(C(=O)N3CCN(C(=O)[C@H](O)CC(C)(C)C)C[C@H]3C)nc12 [Compound I-196]",
    "pIC50": 7.69
  },
  {
    "compound": "Cc1ccc(-c2cc(C(C)(C)C)c3nc(C(=O)N4CCNC(=O)C4(C)C)cn3n2)cc1F [Compound I-298]",
    "pIC50": 8.64
  },
  {
    "compound": "CC(C)(C)c1cc(-c2ccc(F)cc2)nn2cc(C(=O)N3CCN(C(=O)c4ccncn4)CC3(C)C)nc12 [Compound I-231]",
    "pIC50": 8.96
  },
  {
    "compound": "Cc1cc(-c2cc(C(C)C)c3nc(C(=O)N4CCN(C(=O)C5CC(C)(O)C5)CC4(C)C)cn3n2)ccc1F (stereo not shown) [Compound I-378]",
    "pIC50": 8.30
  },
  {
    "compound": "CC(C)(C)c1cc(C2CCC(F)(F)CC2)nn2cc(C(=O)N3CCN(c4cn[nH]c4)C(=O)C3(C)C)nc12 [Compound I-429]",
    "pIC50": 8.62
  }
]
